- System tested: PfCRT^Dd2 (Plasmodium falciparum, UniProt Q9N623, A220S/I356T/K76T/M74I/N326S/N75E/Q271E/R371I)
- Sequence (Q9N623 whole entry A220S/I356T/K76T/M74I/N326S/N75E/Q271E/R371I): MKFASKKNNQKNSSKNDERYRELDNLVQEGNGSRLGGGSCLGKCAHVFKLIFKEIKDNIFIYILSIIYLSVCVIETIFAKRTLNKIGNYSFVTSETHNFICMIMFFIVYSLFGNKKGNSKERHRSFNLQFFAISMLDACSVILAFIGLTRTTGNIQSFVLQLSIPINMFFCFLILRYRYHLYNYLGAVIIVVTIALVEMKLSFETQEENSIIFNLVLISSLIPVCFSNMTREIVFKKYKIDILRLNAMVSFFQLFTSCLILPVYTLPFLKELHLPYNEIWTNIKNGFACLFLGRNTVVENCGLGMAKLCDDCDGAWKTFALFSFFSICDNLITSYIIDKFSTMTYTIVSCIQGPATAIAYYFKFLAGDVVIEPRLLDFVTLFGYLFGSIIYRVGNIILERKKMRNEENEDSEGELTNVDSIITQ
- Assay notes: cell-based
- Type: cell-based
- Study conditions: PfCRTDd2 oocytes; footnote b: highest intracellular concentration tested was 30 mM (solubility); normalised to the oocyte type control (control = 100)
Readout: Trans-stimulation data: total [3H]CQ transport (b)
// return numeric value only (unit: b, not printed)

>>> df
                           monomer_sequence  readout_unit  recorded_value
0  LTPEEKSAVTALWGKVNVDEVGGEA [LA-25, additional peptide, 25 residues]             b             100
1                       VEPSDTIENVK [VK-11]             b              98
2                           YFPHFDLS [YS-8]             b              99

Moving on to the next sequence.
Task: Name the recorded Trans-stimulation data: total [3H]CQ transport for VHLTPEEKSAVT [VT-12] .
Output: 100

====

- System tested: PfCRT^Ecu1110 (Plasmodium falciparum, UniProt Q9N623, A220S/I356L/K76T/N326D)
- Assay notes: cell-based
- Format: cell-based
- Study conditions: […], pH 5.5, read-out: PfCRT-mediated [3H]CQ transport, trans-stimulation (% PfCRTEcu1110 control), [test solute]i = 5 mM (intracellular); PfCRTEcu1110 oocytes; normalised to oocyte type control
Listing of recorded activity at 5000 µM by entry.
Write the answer as a number in %, unit excluded.

>>> df
                                   molecule  recorded_value
0    C[C@@H](O)[C@H](N)C(=O)O [L-threonine]              99
1          CC(C)C[C@H](N)C(=O)O [L-leucine]              96
2            N[C@@H](CS)C(=O)O [L-cysteine]              95
3            CC(C)[C@H](N)C(=O)O [L-valine]              96
4  N[C@@H](Cc1c[nH]c2ccccc12)C(=O)O [L-tryptophan]              97
5     N=C(N)NCCC[C@H](N)C(=O)O [L-arginine]              98

Task: So what's the measured activity at 5000 µM for this one? N[C@@H](CCC(=O)O)C(=O)O [L-glutamic acid]
Output: 97

Task: Requested field: activity at 5000 µM. Item: C[C@H](N)C(=O)O [L-alanine]
Output: 97

Task: Could you tell me which activity at 5000 µM is on file for N[C@@H](CO)C(=O)O [L-serine] ?
Output: 98

Task: So what's the measured activity at 5000 µM for this one? N[C@@H](Cc1ccc(O)cc1)C(=O)O [L-tyrosine]
Output: 97

Task: Please report the recorded activity at 5000 µM for NCCCC[C@H](N)C(=O)O [L-lysine] .
Output: 95

Task: Reported activity at 5000 µM, molecule CC[C@H](C)[C@H](N)C(=O)O [L-isoleucine] : ____
Output: 97

Task: Tell me the measured activity at 5000 µM of N[C@@H](Cc1ccccc1)C(=O)O [L-phenylalanine] , please.
Output: 96

Task: State the recorded activity at 5000 µM for this entry: NC(=O)CC[C@H](N)C(=O)O [L-glutamine]
Output: 97
